Data credit: ChEMBL document CHEMBL4184210

Test system: Escherichia coli
Assay: microbe, parasite or virus in culture
Description: Antimicrobial activity against wild type Escherichia coli by CLSI broth microdilution method
measurement type: MIC (µg/mL)
A number alone suffices; assume µg/mL.

Consider the worked cases shown below.
MIC reading for `CC(C)(O/N=C(\C(=O)N[C@@H]1C(=O)N(S(=O)(=O)O)[C@@H]1Cn1cncn1)c1nsc(N)n1)C(=O)O` : 1

MIC reading for CC(C)(O/N=C(\C(=O)N[C@@H]1C(=O)N(S(=O)(=O)O)[C@@H]1CN1C[C@@H](CNC(=N)N)OC1=O)c1csc(N)n1)C(=O)O (stereo in doubt) : 0.25

Proceed to the following item.
MIC reading for C[C@H](O/N=C(\C(=O)N[C@@H]1C(=O)N(S(=O)(=O)O)[C@@H]1Cn1cncn1)c1csc(N)n1)C(=O)O (stereo in doubt) : 0.125
